For each of the compounds below, state its DC50.
target: CK1α (Homo sapiens, UniProt P48729+Q96SW2); construct: CSNK1A1-HiBit KI HEK293(LgBit) Cells; host or cells: HEK293(LgBit) knock-in cells; test: HiBiT degradation assay, CK1α, Procedure A; assay type: cell-based; conditions: six hours incubation
Sequence (P48729 whole entry): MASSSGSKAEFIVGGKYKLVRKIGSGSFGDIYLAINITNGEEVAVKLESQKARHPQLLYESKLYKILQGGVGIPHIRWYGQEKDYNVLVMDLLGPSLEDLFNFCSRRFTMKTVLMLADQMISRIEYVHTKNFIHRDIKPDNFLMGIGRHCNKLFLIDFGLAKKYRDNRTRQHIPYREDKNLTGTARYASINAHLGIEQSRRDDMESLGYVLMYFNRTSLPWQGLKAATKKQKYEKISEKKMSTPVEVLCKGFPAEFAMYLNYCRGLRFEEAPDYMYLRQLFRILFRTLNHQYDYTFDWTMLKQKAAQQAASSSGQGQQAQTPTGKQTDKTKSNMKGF
Sequence (Q96SW2 whole entry): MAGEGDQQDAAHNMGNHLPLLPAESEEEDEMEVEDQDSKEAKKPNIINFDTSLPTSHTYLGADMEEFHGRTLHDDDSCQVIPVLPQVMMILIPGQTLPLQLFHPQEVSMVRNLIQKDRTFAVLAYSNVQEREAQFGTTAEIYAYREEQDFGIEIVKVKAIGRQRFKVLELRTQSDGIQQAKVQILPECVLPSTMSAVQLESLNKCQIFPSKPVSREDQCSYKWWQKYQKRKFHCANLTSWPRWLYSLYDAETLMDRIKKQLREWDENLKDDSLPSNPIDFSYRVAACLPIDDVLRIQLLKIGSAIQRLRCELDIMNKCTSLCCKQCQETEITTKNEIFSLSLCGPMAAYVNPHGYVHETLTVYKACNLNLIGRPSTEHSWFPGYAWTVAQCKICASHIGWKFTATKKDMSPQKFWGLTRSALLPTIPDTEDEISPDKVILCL
Sequence (Q16531 whole entry partner): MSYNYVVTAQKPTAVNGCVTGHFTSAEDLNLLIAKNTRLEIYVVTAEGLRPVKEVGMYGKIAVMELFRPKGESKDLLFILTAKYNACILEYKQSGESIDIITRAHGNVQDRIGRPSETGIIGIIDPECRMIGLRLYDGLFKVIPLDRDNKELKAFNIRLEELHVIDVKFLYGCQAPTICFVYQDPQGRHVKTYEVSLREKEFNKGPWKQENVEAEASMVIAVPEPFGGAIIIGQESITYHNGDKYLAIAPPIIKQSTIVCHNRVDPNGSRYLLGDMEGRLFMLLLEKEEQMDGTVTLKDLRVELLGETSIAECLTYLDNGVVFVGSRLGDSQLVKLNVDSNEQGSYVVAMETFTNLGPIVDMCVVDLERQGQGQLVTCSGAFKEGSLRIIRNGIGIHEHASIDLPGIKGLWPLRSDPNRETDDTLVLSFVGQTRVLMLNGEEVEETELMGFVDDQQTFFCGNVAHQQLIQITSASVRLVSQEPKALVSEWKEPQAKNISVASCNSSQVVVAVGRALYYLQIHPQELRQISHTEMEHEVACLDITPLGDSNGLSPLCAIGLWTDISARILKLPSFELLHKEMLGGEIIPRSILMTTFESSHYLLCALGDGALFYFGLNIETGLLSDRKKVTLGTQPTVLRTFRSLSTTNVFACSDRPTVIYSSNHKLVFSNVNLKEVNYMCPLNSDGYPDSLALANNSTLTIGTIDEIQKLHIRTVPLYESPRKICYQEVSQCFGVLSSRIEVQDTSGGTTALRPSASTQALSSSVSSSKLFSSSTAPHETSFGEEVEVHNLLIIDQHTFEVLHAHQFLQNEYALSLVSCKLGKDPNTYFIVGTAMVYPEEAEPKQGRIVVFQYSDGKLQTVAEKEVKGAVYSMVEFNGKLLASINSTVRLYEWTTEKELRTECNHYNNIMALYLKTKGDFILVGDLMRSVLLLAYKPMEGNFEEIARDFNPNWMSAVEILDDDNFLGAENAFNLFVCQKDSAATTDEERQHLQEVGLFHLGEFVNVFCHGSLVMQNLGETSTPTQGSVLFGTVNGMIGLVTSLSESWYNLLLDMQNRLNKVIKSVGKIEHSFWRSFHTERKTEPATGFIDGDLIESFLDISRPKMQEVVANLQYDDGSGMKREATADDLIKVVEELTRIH

In the examples that follow, each entry is paired with its recorded DC50.
{"compound": "CN1N=CC(c2ccc3c(c2)CN(C2CCC(=O)NC2=O)C3=O)C1c1cnn(C2CC2)c1 (stereo not shown)", "value-type": "DC50", "measured": "< 25 nM"}
{"compound": "Cc1cc(-c2c(-c3ccc4c(c3)CN(C3CCC(=O)NC3=O)C4=O)ncn2C)n(C)n1 (stereo not shown)", "value-type": "DC50", "measured": "≥ 25 nM"}
{"compound": "COc1ccc(-c2c(-c3ccc4c(c3)CN(C3CCC(=O)NC3=O)C4=O)ncn2C)cc1O (stereo not shown)", "value-type": "DC50", "measured": "< 25 nM"}

Please supply DC50 for each of the following items, keeping them in order.
1. Cn1cnc(-c2ccc3c(c2)CN(C2CCC(=O)NC2=O)C3=O)c1-c1ccc(Cl)cc1F (stereo not shown)
2. Cc1sccc1-c1c(-c2ccc3c(c2)CN(C2CCC(=O)NC2=O)C3=O)ncn1C (stereo not shown)
3. Cn1ncc(-c2ccc3c(c2)CN(C2CCC(=O)NC2=O)C3=O)c1-c1ccc(F)cc1F (stereo not shown)
4. Cn1ncc(-c2ccc3c(c2)CN(C2CCC(=O)NC2=O)C3=O)c1-c1ccc(C(=O)NC2CCCC2)cc1 (stereo not shown)

["< 25 nM", "< 25 nM", "< 25 nM", "≥ 25 nM"]

Where these numbers come from: patent US20240158370A1
